system: HepG2; assay: GSK_TCMDC: Percent inhibition of human HepG2 cell line. Test compounds present at 10uM.; assay type: functional
// reported Inhibition per item

[ask] I am curious: what Inhibition value has been reported for O=C(NC1CCC(CN2CCC(c3c[nH]c4ccccc34)CC2)CC1)c1ccc(-c2ccccc2[N+](=O)[O-])o1 (stereo not drawn) ?
[reply] 24%

[ask] I am curious: what Inhibition value has been reported for COC(=O)c1ccc(CC(C)NCC(O)c2cccc(C(F)(F)F)c2)c(OC)c1 (stereo not drawn) ?
[reply] 5%

[ask] I am curious: what Inhibition value has been reported for Oc1ccc(Cl)cc1CN1CCC(CCOC(c2ccccc2)c2ccc(Cl)cc2)CC1 (stereo not drawn) ?
[reply] 32%

[ask] I am curious: what Inhibition value has been reported for CC[C@H]1CN2CC[C@H]1C[C@H]2[C@H](OC(=O)c1ccccc1)c1cc(C#N)nc2ccc(OC)cc12 ?
[reply] 19%

[ask] I am curious: what Inhibition value has been reported for CC(Cc1ccc(OCc2ccccc2)c(Cl)c1)NCC(O)c1cccc(C(F)(F)F)c1 (stereo not drawn) ?
[reply] 0%

[ask] I am curious: what Inhibition value has been reported for O=C(NC1CCC(CN2CCC(c3c[nH]c4ccccc34)CC2)CC1)c1cc(-c2ccccc2Cl)oc1C(F)(F)F (stereo not drawn) ?
[reply] 24%

[ask] I am curious: what Inhibition value has been reported for Cc1[nH]c2ccccc2c1C1=CCN(CCCCC23CCCc4cccc(c42)NC3=O)CC1 (stereo not drawn) ?
[reply] 9%

[ask] I am curious: what Inhibition value has been reported for COCC(=O)N(Cc1ccccc1-c1cccc(CNCCc2ccccc2)c1)C1CCN(Cc2ccccc2)CC1.O=C(O)C(F)(F)F ?
[reply] 21%

###

tested on: HepG2; assay: GSK_TCMDC: Percent inhibition of human HepG2 cell line. Test compounds present at 10uM.; format: functional
measurement-label: Inhibition (%)
Give the value in % but do not write % after it.

Example compounds with recorded Inhibition:
CC[C@H]1CN2CC[C@@H]1C[C@H]2[C@H](O)c1cc(N2CCC(C)CC2)nc2ccc(OC)cc12 | 16
CN(CC(=O)N1CCN(S(=O)(=O)c2cccc(Cl)c2)CC1CN1CCCC1)c1ccc(Cl)c(Cl)c1 (stereo not given) | 32
COC(C(=O)OCCC1CCCN1C)(c1ccccc1)C1CCCCC1 (stereo not given) | 3
CN(C)CCc1c[nH]c2ccc(C(=O)Nc3ccc(-c4ccncc4)cc3)cc12.O=C(O)CCC(=O)O | 23

--- query ---
[ask] What Inhibition appears in the records for this compound with HepG2? Cc1ccc(CC(C)NCC(O)c2cccc(C(F)(F)F)c2)c(C)c1.Cl (stereo not given)
[reply] 3

###

test system: HepG2; experiment: GSK_TCMDC: Percent inhibition of human HepG2 cell line. Test compounds present at 10uM.; type: functional
Assign true (1) whenever Inhibition does not fall below 30%; assign false (0) whenever it does.

Cl.N[C@@H](CCN1CCC(c2cccc(O)c2)CC1)Cc1ccc(F)c(F)c1 | false (0)
CC(Cc1ccc(OCc2ccc(CCN(C)C)cc2)cc1)NCCc1cccc(Cl)c1 (centres undefined) | true (1)
Cc1cccc(N2CCN(Cc3cc(Cl)ccc3O)CC2)c1C.O=C(O)C(=O)O | false (0)
CN(Cc1ccccc1)C1CCN(CCc2c[nH]c3ccc(F)cc23)CC1.O=C(O)C(F)(F)F | false (0)
Cc1cccc2c(C3CCN(CC4CCC(NC(=O)/C=C/c5ccc(Cl)c(Cl)c5)CC4)CC3)c[nH]c12 (centres undefined) | true (1)

[ask] Assess whether reported Inhibition for COC(=O)CN(C(=O)/C=C/c1ccc(Cl)c(Cl)c1)C1CCC(CN2CCC(c3c[nH]c4ccccc34)CC2)CC1 (centres undefined) sits at 30% or higher.
[reply] true (1)

[ask] Assess whether reported Inhibition for O=C(/C=C/c1ccc(Cl)c(Cl)c1)NC1CCC(CN2CCC(c3c[nH]c4ccccc34)CC2)CC1 (centres undefined) sits at 30% or higher.
[reply] false (0)

[ask] Assess whether reported Inhibition for CC(=O)N(Cc1ccccc1-c1ccc(CNCCc2ccccc2)cc1)C1CCN(Cc2ccccc2)CC1.O=C(O)C(F)(F)F sits at 30% or higher.
[reply] false (0)
